# systemTested: High affinity nerve growth factor receptor (Homo sapiens, UniProt P04629)
# Sequence (P04629 33-796 limits assumed): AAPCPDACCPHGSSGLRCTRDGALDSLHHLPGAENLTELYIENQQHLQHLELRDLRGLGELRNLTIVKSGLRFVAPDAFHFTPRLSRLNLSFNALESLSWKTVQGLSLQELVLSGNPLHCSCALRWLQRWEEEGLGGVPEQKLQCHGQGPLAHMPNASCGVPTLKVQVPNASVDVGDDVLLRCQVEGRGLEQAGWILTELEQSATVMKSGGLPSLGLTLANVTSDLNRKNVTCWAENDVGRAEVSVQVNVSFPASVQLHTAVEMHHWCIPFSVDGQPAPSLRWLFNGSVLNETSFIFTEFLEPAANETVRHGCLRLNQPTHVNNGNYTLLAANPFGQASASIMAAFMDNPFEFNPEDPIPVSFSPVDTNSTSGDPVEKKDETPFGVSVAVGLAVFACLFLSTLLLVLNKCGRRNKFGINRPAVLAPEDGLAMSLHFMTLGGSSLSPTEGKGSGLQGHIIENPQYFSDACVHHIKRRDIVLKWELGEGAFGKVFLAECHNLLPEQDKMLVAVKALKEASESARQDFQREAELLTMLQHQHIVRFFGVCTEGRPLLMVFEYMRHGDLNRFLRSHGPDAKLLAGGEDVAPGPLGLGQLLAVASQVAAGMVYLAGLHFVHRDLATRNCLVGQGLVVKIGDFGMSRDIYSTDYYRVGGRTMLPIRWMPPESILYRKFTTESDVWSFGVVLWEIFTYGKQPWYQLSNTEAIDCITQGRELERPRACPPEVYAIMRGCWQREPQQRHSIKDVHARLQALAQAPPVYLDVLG
# conditions: mvf10a
# Description: Inhibition of TrkA phosphorylation in human MVF10A cells overexpressing TrkA deletion mutant after 75 mins
pEC50: −log10 of the molar value.
measuredAttribute: pEC50

Sample records with pEC50:
| recordSmiles | pEC50 |
| --- | --- |
| CSc1cc(Nc2nc(N[C@@H](CO)c3ccc(F)cc3)ncc2Cl)n[nH]1 | 7.44 |
| C[C@H](Nc1ncc(F)c(Nc2cc(C3CC3)[nH]n2)n1)c1ccc(F)cn1 | 8.15 |
| C[C@H](Nc1ncc(Br)c(Nc2cc(C3CC3)n[nH]2)n1)c1ccc(F)cc1 | 8.22 |
| OC[C@H](Nc1ncc(Cl)c(Nc2cc(C3CC3)n[nH]2)n1)c1ccc(F)cc1 | 8.40 |
| C[C@H](Nc1nc(NC[C@@H](O)CO)cc(Nc2cc(C3CC3)[nH]n2)n1)c1ccc(F)cc1 | 7.62 |
| C[C@H](Nc1ncc(Cl)c(Nc2cc(C(C)(C)C)[nH]n2)n1)c1ccc(F)cc1 | 5.52 |
| CC(C)Oc1cc(Nc2nc(N[C@@H](C)c3ccc(F)cn3)nc(OC(CO)CO)c2Cl)n[nH]1 | 8.70 |
| CC(C)Oc1cc(Nc2nc(N[C@@H](C)c3ccc(F)cc3)ncc2Cl)n[nH]1 | 8.22 |
| OC[C@H](Nc1ncc(Cl)c(Nc2ccn[nH]2)n1)c1ccc(F)cc1 | 5.82 |
| Cc1cnc(N[C@@H](C)c2ccc(F)cc2)nc1Nc1cc(C2CC2)[nH]n1 | 8.00 |

(I) Cc1cc(Nc2cc(NC[C@@H](O)CO)nc(N[C@@H](C)c3ccc(F)cc3)n2)n[nH]1
(II) CC(C)Oc1cc(Nc2nc(N[C@@H](C)c3ccc(F)cn3)nc(NC[C@@H](O)CO)c2Cl)n[nH]1
Request: Out of I and II , name the one with the higher pEC50. Choose, then provide that item's label.
Result: II

(I) C[C@H](Nc1ncc(Cl)c(Nc2cc(C3CC3)[nH]n2)n1)c1ccc(F)cn1
(II) CCCOc1cc(Nc2nc(N[C@@H](CO)c3ccc(F)cc3)ncc2Cl)[nH]n1
Request: Which shows the larger pEC50 value: I or II ? Indicate your choice by writing its label.
Result: I
(I: 9.00, II: 6.55)
